Cited source for all entries: patent US20220153746A1

PROTOCOL DESCRIPTION: TD Phase (Groups 1 and 3): plasma and ocular tissue concentrations and pharmacokinetics of Compound 18 and its metabolite Compound 4 after once daily ocular instillation of Compound 18 nanosuspension for 7 days
Assay type: in vivo, New Zealand white rabbits
EXPERIMENTAL CONDITIONS: male, New Zealand white, rabbit, topical or ocular; Trabecular Meshwork; Day 7; Compound 18 0.8 mg/kg ocular instillation once daily; Groups 1 and 3
RECORDED METRIC: half-life (h)
Report the value in h with no unit label.

**Query** Please give the measured half-life for this molecule: CCCc1nn(C)c2c(=O)[nH]c(-c3cc(S(=O)(=O)N4CC(CCCO)C4)ccc3OCC)nc12
**Result** 2.2

---

PROTOCOL DESCRIPTION: TD Phase (Groups 1 and 3): plasma and ocular tissue concentrations and pharmacokinetics of Compound 18 and its metabolite Compound 4 after once daily ocular instillation of Compound 18 nanosuspension for 7 days
Type: in vivo, New Zealand white rabbits
EXPERIMENTAL CONDITIONS: male, New Zealand white, rabbit, retina homogenate, other: ocular instillation (eye drop), 0.798 mg/kg/day, TD Phase, Group 3, 0.5 h, individual animals, homogenate dilution factor 20; read-out: Compound 18 Retina Homogenate Conc.
RECORDED METRIC: concentration at 0.5 h (ng/mL)
Give the value in ng/mL but do not write ng/mL after it.

**Query** Entry CCCc1nn(C)c2c(=O)[nH]c(-c3cc(S(=O)(=O)N4CC(CCCO[N+](=O)[O-])C4)ccc3OCC)nc12 has what concentration at 0.5 h?
**Result** 0.798

---

PROTOCOL DESCRIPTION: PK Phase (Group 2): plasma concentrations and pharmacokinetics of Compound 18 and its metabolite Compound 4 after once daily ocular instillation of Compound 18 nanosuspension for 7 days
Type: in vivo, New Zealand white rabbits
EXPERIMENTAL CONDITIONS: male, New Zealand white, rabbit, plasma, topical or ocular, 0.8 mg/kg, plasma, Day 7, Compound 18 0.8 mg/kg ocular instillation; animal 207665
RECORDED METRIC: half-life (min)
Please respond with the number in min and leave the unit unwritten.

**Query** For CCCc1nn(C)c2c(=O)[nH]c(-c3cc(S(=O)(=O)N4CC(CCCO)C4)ccc3OCC)nc12 , what is its reported half-life?
**Result** 49.4

---

PROTOCOL DESCRIPTION: PK Phase (Group 2): plasma concentrations and pharmacokinetics of Compound 18 and its metabolite Compound 4 after once daily ocular instillation of Compound 18 nanosuspension for 7 days
Assay type: in vivo, New Zealand white rabbits
EXPERIMENTAL CONDITIONS: male, New Zealand white, rabbit, plasma, other: ocular instillation (eye drop), 0.821 mg/kg/day, 2 h; animal 207666; read-out: Day 7 Compound 18 Plasma Concentration
RECORDED METRIC: concentration at 2 h (ng/mL)
Give the quantity in ng/mL, number only.

**Query** Look at this molecule and give its reported concentration at 2 h. CCCc1nn(C)c2c(=O)[nH]c(-c3cc(S(=O)(=O)N4CC(CCCO[N+](=O)[O-])C4)ccc3OCC)nc12
**Result** 0.0747

---

PROTOCOL DESCRIPTION: TD Phase (Groups 1 and 3): plasma and ocular tissue concentrations and pharmacokinetics of Compound 18 and its metabolite Compound 4 after once daily ocular instillation of Compound 18 nanosuspension for 7 days
Assay type: in vivo, New Zealand white rabbits
EXPERIMENTAL CONDITIONS: male, New Zealand white, rabbit, iris/ciliary body, topical, 0.798 mg/kg/day, TD Phase, Group 3, 0.5 h, Mean; read-out: Final Compound 18 Iris/Ciliary Body Conc.
RECORDED METRIC: concentration at 0.5 h
Remember to put the unit after the number in your answer.

**Query** Field request: concentration at 0.5 h | item: CCCc1nn(C)c2c(=O)[nH]c(-c3cc(S(=O)(=O)N4CC(CCCO[N+](=O)[O-])C4)ccc3OCC)nc12 [Compound 18]
**Result** 90.1 ng/g
